- Test system: MDA-MB-231 cell adhesion
- Assay explanation: Cell adhesion to fibronectin
- Type: cell-based
- Test parameters: Homo sapiens, MDA-MB-231, read-out: IC50, cell adhesion
pIC50: −log10 of the molar value.
Quantity name: pIC50

Given the entry Cc1ccc(-n2ncc(C(=O)Nc3ccccc3OCc3ccccc3)c2C2CCNCC2)cc1C , report its measured pIC50.
~4.60

Where do the numbers come from? From paper PMC4058332.
